Target: recombinant autotaxin (Homo sapiens, UniProt Q13822)
Test: Autotaxin assay (Amplex Red fluorescence, LPC substrate)
Conditions: ten serial 1:3 dilutions starting at 30 μM, duplicates; 75 μM LPC; values given as upper bounds
pIC50: −log10 of the molar value.
Readings of pIC50 for the listed molecules

Solved cases (6 shown):
{"columns": ["molecule", "pIC50"],
 "data": [
  ["NC(=O)c1c(NC(=O)Cc2ccc(Cl)cc2F)sc2c1CCN(C(=O)c1ccc3[nH]c(=O)oc3c1)C2", "> 6.00"],
  ["COc1ccc(Cl)cc1CNC(=O)c1[nH]nc2c1CCN(C(=O)c1ccc3[nH]nnc3c1)C2", "> 5.00"],
  ["NC(=O)c1c(NC(=O)Cc2ccc(Cl)cc2F)sc2c1CCN(C(=O)Cc1cccnc1)C2", "> 5.00"],
  ["O=C(NCc1cc(Cl)ccc1Cl)c1[nH]nc2c1CCN(C(=O)c1ccc3[nH]nnc3c1)C2", "> 5.00"],
  ["NC(=O)c1c(NC(=O)Nc2ccc(Cl)cc2)sc2c1CCN(C(=O)c1ccc3[nH]c(=O)oc3c1)C2", "> 6.00"],
  ["O=C(NCCc1cccc(Cl)c1)c1[nH]nc2c1CCN(C(=O)c1ccc3[nH]nnc3c1)C2", "> 4.52"]
]}

[in] Indicate its recorded pIC50; the molecule in question is CC(C)c1ccc(NC(=O)Nc2sc3c(c2C(N)=O)CCN(C(=O)c2ccc4[nH]nnc4c2)C3)cc1
[out] > 6.00

[in] Indicate its recorded pIC50; the molecule in question is NC(=O)c1c(NC(=O)Cc2ccc(Cl)cc2F)sc2c1CCN(C(=O)CCc1ccccn1)C2
[out] > 5.00

[in] Indicate its recorded pIC50; the molecule in question is O=C(NCCc1ccc(F)cc1)c1[nH]nc2c1CCN(C(=O)c1ccc3[nH]nnc3c1)C2
[out] > 5.00

[in] Indicate its recorded pIC50; the molecule in question is NC(=O)c1c(NC(=O)CCc2ccc(Cl)cc2)sc2c1CCN(C(=O)c1ccc3[nH]c(=O)oc3c1)C2
[out] > 6.00

[in] Indicate its recorded pIC50; the molecule in question is CC(CNC(=O)c1[nH]nc2c1CCN(C(=O)c1ccc3[nH]nnc3c1)C2)c1ccc(Cl)cc1 (stereo not drawn)
[out] > 5.00

----------
Readings of IC50 for the listed compounds
Target: recombinant autotaxin (Homo sapiens)
Assay: Autotaxin assay (Amplex Red fluorescence, LPC substrate)
Details: ten serial 1:3 dilutions starting at 30 μM, duplicates; 75 μM LPC; values given as upper bounds

{"columns": ["compound", "IC50"],
 "data": [
  ["NC(=O)c1c(NC(=O)Nc2cc(Cl)cc(Cl)c2)sc2c1CCN(C(=O)c1ccc3[nH]nnc3c1)C2 [Compound 12]", "< 10 µM"],
  ["COc1ccc(C2CCCN(C(=O)c3[nH]nc4c3CCN(C(=O)c3ccc5[nH]nnc5c3)C4)C2)cc1 (stereo not drawn) [Compound 59]", "< 30 µM"],
  ["O=C(NCc1ccc(Cl)cc1)c1[nH]nc2c1CCN(C(=O)c1ccc3[nH]nnc3c1)C2 [Compound 34]", "< 10 µM"],
  ["NC(=O)c1c(NC(=O)Nc2cc(Cl)cc(Cl)c2)sc2c1CCN(C(=O)c1ccc3[nH]c(=O)oc3c1)C2 [Compound 8]", "< 10 µM"]
]}

[in] Indicate its recorded IC50; the compound in question is O=C(NCc1ccc(SC(F)(F)F)cc1)c1[nH]nc2c1CCN(C(=O)c1ccc3[nH]nnc3c1)C2 [Compound 49]
[out] < 30 µM

[in] Indicate its recorded IC50; the compound in question is O=C(Nc1ccc2[nH]nnc2c1)c1[nH]nc2c1CCN(C(=O)OCc1cc(C(F)(F)F)cc(C(F)(F)F)c1)C2 [Compound 53]
[out] < 1 µM

[in] Indicate its recorded IC50; the compound in question is O=C(NCCc1ccc(Br)cc1)c1[nH]nc2c1CCN(C(=O)c1ccc3[nH]nnc3c1)C2 [Compound 44]
[out] < 10 µM

[in] Indicate its recorded IC50; the compound in question is NC(=O)c1c(NC(=O)CCc2ccc(Cl)cc2)sc2c1CCN(C(=O)c1ccc3[nH]nnc3c1)C2 [Compound 5]
[out] < 1 µM

[in] Indicate its recorded IC50; the compound in question is NC(=O)c1c(NC(=O)Cc2ccc(Cl)cc2)sc2c1CCN(C(=O)c1ccc3[nH]c(=O)oc3c1)C2 [Compound 14]
[out] < 1 µM

[in] Indicate its recorded IC50; the compound in question is O=C(Nc1ccc2[nH]nnc2c1)c1[nH]nc2c1CCN(C(=O)OCc1ccc(SC(F)(F)F)cc1)C2 [Compound 56]
[out] < 1 µM

[in] Indicate its recorded IC50; the compound in question is O=C(NCc1ccc(OC(F)(F)F)cc1)c1[nH]nc2c1CCN(C(=O)c1ccc3[nH]nnc3c1)C2 [Compound 60]
[out] < 30 µM

[in] Indicate its recorded IC50; the compound in question is NC(=O)c1c(NC(=O)Cc2ccc(Cl)cc2F)sc2c1CCN(Cc1cccnc1)C2 [Compound 16]
[out] < 30 µM

[in] Indicate its recorded IC50; the compound in question is NC(=O)c1c(NC(=O)Nc2ccc(Cl)cc2)[nH]c2cc(C(=O)Nc3ccc4[nH]c(=O)oc4c3)ccc12 [Compound 28]
[out] < 30 µM

[in] Indicate its recorded IC50; the compound in question is O=C(NCCc1ccc(Cl)c(Cl)c1)c1[nH]nc2c1CCN(C(=O)c1ccc3[nH]nnc3c1)C2 [Compound 37]
[out] < 10 µM

[in] Indicate its recorded IC50; the compound in question is O=C(Cc1ccc(Cl)cc1F)Nc1nc2ccc(C(=O)Nc3ccc4[nH]c(=O)oc4c3)cc2s1 [Compound 29]
[out] < 10 µM

----------
Readings of IC50 for the listed compounds
Target: recombinant autotaxin (Homo sapiens, UniProt Q13822)
Test: Autotaxin assay (Amplex Red fluorescence, LPC substrate)
Settings: ten serial 1:3 dilutions starting at 30 μM, duplicates; 75 μM LPC; values given as upper bounds

Solved cases (5 shown):
{"columns": ["compound", "recorded metric", "experimental value"],
 "data": [
  ["O=C(Nc1ccc2[nH]nnc2c1)c1[nH]nc2c1CCN(C(=O)OCc1cc(Cl)cc(Cl)c1)C2 [Compound 52]", "IC50", "< 1 µM"],
  ["NC(=O)c1c(NC(=O)Nc2ccc(Cl)cc2)sc2c1CCN(Cc1ccncc1)C2 [Compound 20]", "IC50", "< 10 µM"],
  ["O=C(NCCc1ccc([N+](=O)[O-])cc1)c1[nH]nc2c1CCN(C(=O)c1ccc3[nH]nnc3c1)C2 [Compound 43]", "IC50", "< 10 µM"],
  ["O=C(Nc1ccc2[nH]nnc2c1)c1[nH]nc2c1CCN(C(=O)OCc1ccc(C(F)(F)F)c(Cl)c1)C2 [Compound 54]", "IC50", "< 10 µM"],
  ["NC(=O)c1c(NC(=O)Nc2ccc(Cl)cc2)sc2c1CCN(C(=O)c1cccnc1)C2 [Compound 19]", "IC50", "< 10 µM"]
]}

[in] Provide recombinant autotaxin (Homo sapiens, UniProt Q13822) IC50 reading for O=C(NCc1cc(C(F)(F)F)ccc1F)c1[nH]nc2c1CCN(C(=O)c1ccc3[nH]nnc3c1)C2 [Compound 36] .
[out] < 30 µM

[in] Provide recombinant autotaxin (Homo sapiens, UniProt Q13822) IC50 reading for O=C(Nc1ccc2c(c1)CCN(C(=O)c1ccc3[nH]nnc3c1)C2)OCc1cc(Cl)cc(Cl)c1 [Compound 48] .
[out] < 10 µM

----------
Biological target: recombinant autotaxin (Homo sapiens, UniProt Q13822)
Assay: Autotaxin assay (Amplex Red fluorescence, LPC substrate)
Details: ten serial 1:3 dilutions starting at 30 μM, duplicates; 75 μM LPC; values given as upper bounds
pIC50: −log10 of the molar value.
recorded metric: pIC50

Solved cases (5 shown):
{"columns": ["molecule", "experimental value"],
 "data": [
  ["NC(=O)c1c(NC(=O)Cc2cccc(Cl)c2)sc2c1CCN(C(=O)c1ccc3[nH]c(=O)oc3c1)C2", "> 6.00"],
  ["NC(=O)c1c(NC(=O)Cc2ccc(Cl)cc2F)sc2c1CCN(C(=O)Cc1ccncc1)C2", "> 5.00"],
  ["COc1ccc2c(c1)CCC(NC(=O)c1[nH]nc3c1CCN(C(=O)c1ccc4[nH]nnc4c1)C3)C2 (stereo not shown)", "> 5.00"],
  ["O=C(NCc1cc(Cl)cc(Cl)c1)c1[nH]nc2c1CCN(C(=O)c1ccc3[nH]nnc3c1)C2", "> 5.00"],
  ["NC(=O)c1c(NC(=O)Cc2ccc(Cl)cc2F)sc2c1CCN(Cc1ccncc1)C2", "> 5.00"]
]}

[in] Provide recombinant autotaxin (Homo sapiens, UniProt Q13822) pIC50 reading for COC(=O)c1c(NC(=O)Nc2ccc(Cl)cc2)sc2c1CCN(C(=O)c1ccc3[nH]nnc3c1)C2 .
[out] > 4.52

[in] Provide recombinant autotaxin (Homo sapiens, UniProt Q13822) pIC50 reading for COC(=O)c1c(NC(=O)Nc2ccc(Cl)cc2)sc2c1CCN(C(=O)c1ccc3[nH]c(=O)oc3c1)C2 .
[out] > 5.00
